# Test system: K4 kissing-loop RNA reporter
# EXPERIMENT: apparent KD of K4 kissing-loop reporter; higher = weaker reporter binding
# CONDITION_SUMMARY: Eterna round: R107; input ligand: none
Kind request: treat 300 nM as inclusive, so apparent KD of K4 kissing-loop reporter at 300 nM or higher is true, anything lower is false.

GGUUUAUAGGAGGAUACCAGUACGGAUAAAGUACGUUAAUAGUAGAGUGAUGUUCUAAAGUACCCUUGGCAGCUUAGAGUAAGUU [ExTheophylB.K] | false
UAGCGAUGAAGUGAUACCAGAGAGUGAUGUUCUUUUUUUAUUCAGAAUACUGUCGCCUUGCUCCCUUGGCAGCACGCAGGCGCAG [theeternabot_exclusion_KL_Theo_B_18] | false
UAUAUAUGAUGUGAUACCAGUGAAAAGCCAGUGAUGUUGGAAGAACUGGUAUAUAAAUAACACCCUUGGCAGCACAAUCACGUAU [theophylline b exclusion] | false

# input Hello, I need to know if UUUGGAUUGCGCGAAGAGUGCAAGCGCCAACGAGGACCGGUACGGCCGCCACUCGCGGAGGAGUCCAGUGAUGUUGGACGGCCCG [Laraones] has measured apparent KD of K4 kissing-loop reporter not below 300 nM. Thanks!
# output false

# input Can you check ACCUACCAUUAGUGAUGUUAAUGGACGGAAGGAGCGCAGAUAUCUGCAGGUAGGUCGCCGAAGGCUAGACAUUGUCUAGCCAUUU [AK1.3 SS Arginine A] next?
# output false

# input Can you check CUGAGCCUGACGCAAGUCAGGCUCUGCGAGCGAGGACCGGUACGGCCGCCACUCGGUGCAGUGAUGUUGCAUGGCCGCAAGGCCG [#2 Exclusion - Tryptophan A Attempt #21 (HarryS)] next?
# output false

====

# Tested on: K4 kissing-loop RNA reporter;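 further: bound reporter read as fluorescence of individual clusters on recovered sequencing chips by microscopy, with normalized cluster intensities fitted with a binding model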
# EXPERIMENT: apparent KD of K4 kissing-loop reporter; higher = weaker reporter binding
# CONDITION_SUMMARY: Eterna round: R107; input ligand: theophylline 20 uM
QUANTITY: apparent KD of K4 kissing-loop reporter (nM)
Numbers only, in nM.

Record excerpt, results attached:
GGUAGCAUGGCGGCCGCCACUGCAAAGCAUAGCUACGGAAACGUAGCUACAGAGUGAUGUUCUGGCAGGACCGGGCCAUGCUACC | 683
UGUACCGAGUCAGGAUAUCAACGACUGACAAAAGUCGGUCGAAUAUCCAGUGAUGUUGGAAAUAAAUGAGAAGGGACUUGGUACU [FmnBS 14 #SwitchBubble #StaticStem] | 264
AAUUUAUUAACUGAUACCAGACUUAAUAAAUUUUAAAUCACUAGUGAUGUUAGUGAAUAUGUCCCUUGGCAGCAGUAUUUAUUAA [JR_SSTheophyB_Sub023] | 121
GCCUAGCAGGGAAGGAGCGCCAUAUAAUUAAAAGUUAAUUAAUGAGUGAUGUUCAAAUAAUGGCAGGUAGGUCGCCCUGCUAGGC [KL-SSArg B9] | 316
UGACGUUUGGGAAGGAGCGGAAUGUAAUACGGAGCGCGUGGAGAUGCAGUGAUGUUGCAGAUCCAGGUAGGUCGCCCAAGGGACG [Zati] | 79.3

Give apparent KD of K4 kissing-loop reporter for each of the items listed below.
1. CUAUGGAAACAUAGGAGUCGGGAAACCGAUACCAGUAUGGAAACAUACCCUUGGCAGCGGAAUGAUUCAACGGAGUGAUGUUCCG [Theophylline A K4 19]
2. AGUGAUGUAUGGCGGUUUGUCACUUAAAAUCAGGAUAUAUAAACAAAUAGAAGGGAUGGCGGAGUGAUGUUCCGCCGGCCGCCAU [FMN A Exl V1]
3. UAGGAGUGAUGUUCCAUAUCUUGAGCCGAAGGAGCGCCUUUAUAGGCAGGUAGGUCGCGGCAGAAGGUACCAGUGAUGUUGGAAA [Same State Arginine A GF6]

# output
322
179
145
